tested on: ApoB secretion, HepG2 cells; experiment: Quantification of the secretion of ApoB (HepG2 cells, immunoprecipitation, scintillation counting); format: cell-based; settings: Homo sapiens, HepG2, 24 h, 24 hours of incubation
quantity-name: pIC50
Answers are plain numbers, as −log10 of the molar value.

Recorded pIC50, per entry:
compound="CCNC(=O)C(c1ccccc1)N1CCN(c2ccc(NC(=O)c3ccccc3-c3ccc(C(F)(F)F)cc3)cc2)CC1 (stereo not drawn)" endpoint_result=8.10
compound="O=C(Nc1ccc(N2CCC(C(C(=O)Nc3ccccc3)c3ccccc3)CC2)cc1)c1ccccc1COc1ccccc1 (stereo not drawn)" endpoint_result=5.62
compound="O=C(Nc1ccc(N2CCN(C(C(=O)OCc3ccccc3)c3ccccc3)CC2)cc1)c1ccccc1-c1ccccc1 (stereo not drawn)" endpoint_result=6.54
compound="CC(C)NC(=O)C(c1ccccc1)C1CCN(c2ccc(NC(=O)c3ccccc3-c3ccccc3)cc2)CC1 (stereo not drawn)" endpoint_result=6.98
compound="O=C(Nc1ccc(C2CCN(C(C(=O)Nc3ccccc3)c3ccccc3)CC2)cc1)c1ccccc1-c1ccc(C(F)(F)F)cc1 (stereo not drawn)" endpoint_result=6.45
compound="C=CCOC(=O)C(c1ccccc1)C1CCN(c2ccc(NC(=O)c3ccccc3-c3ccc(C(F)(F)F)cc3)cc2)CC1 (stereo not drawn)" endpoint_result=6.87
compound="CCNC(=O)C(c1ccccc1)N1CCN(c2ccc(NC(=O)c3ccccc3-c3ccc(Cl)cc3)cc2)CC1 (stereo not drawn)" endpoint_result=7.49

Read the next record carefully.
Read off the recorded pIC50 for CCNC(=O)C(c1ccccc1)C1CCN(c2ccc(NC(=O)c3ccccc3-c3ccccc3)cc2)CC1 (stereo not drawn)
6.95

* * *

biological target: MTP (Homo sapiens)
Sequence (P55157 19-894, species assumed): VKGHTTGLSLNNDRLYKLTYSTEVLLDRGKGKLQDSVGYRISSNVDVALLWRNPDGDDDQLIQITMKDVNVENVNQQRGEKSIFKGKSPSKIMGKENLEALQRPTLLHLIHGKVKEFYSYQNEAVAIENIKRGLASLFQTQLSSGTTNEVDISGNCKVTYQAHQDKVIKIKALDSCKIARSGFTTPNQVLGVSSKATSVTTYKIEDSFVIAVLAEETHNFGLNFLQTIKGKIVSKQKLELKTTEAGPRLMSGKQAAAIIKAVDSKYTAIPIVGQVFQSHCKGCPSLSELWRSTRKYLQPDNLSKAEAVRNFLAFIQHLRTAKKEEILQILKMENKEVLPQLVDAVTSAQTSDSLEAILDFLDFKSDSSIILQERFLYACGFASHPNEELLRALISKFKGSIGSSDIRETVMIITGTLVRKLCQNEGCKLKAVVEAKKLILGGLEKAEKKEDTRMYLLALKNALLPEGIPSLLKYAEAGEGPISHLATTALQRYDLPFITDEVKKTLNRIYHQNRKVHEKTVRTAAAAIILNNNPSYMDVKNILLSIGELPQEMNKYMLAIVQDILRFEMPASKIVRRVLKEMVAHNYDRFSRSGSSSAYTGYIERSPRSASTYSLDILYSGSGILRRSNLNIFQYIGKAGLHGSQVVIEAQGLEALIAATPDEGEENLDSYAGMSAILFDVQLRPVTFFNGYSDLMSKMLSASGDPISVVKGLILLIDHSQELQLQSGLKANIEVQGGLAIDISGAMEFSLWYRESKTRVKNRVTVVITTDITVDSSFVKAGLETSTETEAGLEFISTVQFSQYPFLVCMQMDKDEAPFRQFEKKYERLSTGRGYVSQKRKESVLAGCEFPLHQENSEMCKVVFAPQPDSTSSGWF
Sequence (P07237 18-508 partner, species assumed): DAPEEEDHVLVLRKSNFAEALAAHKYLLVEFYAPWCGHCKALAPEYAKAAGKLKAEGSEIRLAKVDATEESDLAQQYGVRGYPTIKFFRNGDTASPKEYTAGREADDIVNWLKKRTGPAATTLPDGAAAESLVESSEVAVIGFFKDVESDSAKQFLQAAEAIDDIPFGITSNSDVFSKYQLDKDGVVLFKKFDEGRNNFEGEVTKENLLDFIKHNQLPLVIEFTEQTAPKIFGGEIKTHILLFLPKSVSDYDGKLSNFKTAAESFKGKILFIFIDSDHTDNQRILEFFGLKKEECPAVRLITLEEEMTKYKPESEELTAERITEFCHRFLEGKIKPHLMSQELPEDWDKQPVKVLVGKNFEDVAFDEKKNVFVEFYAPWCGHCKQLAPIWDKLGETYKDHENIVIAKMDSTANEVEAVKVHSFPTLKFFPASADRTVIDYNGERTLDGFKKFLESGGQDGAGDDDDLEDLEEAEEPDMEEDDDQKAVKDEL
pIC50: −log10 of the molar value.
true means recorded pIC50 is 8 or above; false means it is below 8.

compound="O=C(Nc1ccc(N2CCC(C(C(=O)NCc3ccccc3)c3ccccc3)CC2)cc1)c1ccccc1Cc1ccccc1 (centres unmarked)" category_label=false
compound="O=C(Nc1ccc(N2CCC(C(C(=O)NCc3ccccc3)c3ccccc3)CC2)cc1)c1ccccc1-c1ccccc1 (centres unmarked)" category_label=false
compound="COC(=O)C(c1ccccc1)N1CCN(c2ccc(NC(=O)c3ccccc3-c3ccc(C(F)(F)F)cc3)cc2)CC1 (centres unmarked) [Co. No. 40]" category_label=true
compound="COC(=O)C(c1ccccc1)N1CCC(c2ccc(NC(=O)c3ccccc3-c3ccc(C(F)(F)F)cc3)cc2)CC1 (single isomer, unassigned) [Co. No. 230]" category_label=true
compound="O=C(Nc1ccc(N2CCC(C(C(=O)NCc3ccccc3)c3ccccc3)CC2)cc1)c1ccccc1CSc1ccccc1 (centres unmarked)" category_label=false

Please indicate if the recorded pIC50 for COC(=O)C(c1ccccc1)N1CCN(c2ccc(NC(=O)c3ccccc3-c3ccc(C(F)(F)F)cc3)cc2)CC1 (centres unmarked) [Co. No. 239] meets or exceeds 8.
true

* * *

system: ApoB secretion, HepG2 cells; assay: Quantification of the secretion of ApoB (HepG2 cells, immunoprecipitation, scintillation counting); assay type: cell-based; settings: Homo sapiens, HepG2, 24 h, 24 hours of incubation
quantity-name: IC50
The reply should read as a number followed by its unit.

molecule="O=C(Nc1ccc(N2CCN(C(C(=O)Nc3ccccc3)c3ccccc3)CC2)cc1)c1ccccc1-c1ccc(C(F)(F)F)cc1 (stereo not drawn)" quantity_name=IC50 endpoint_result="0.0203 µM"
molecule="O=C(Nc1ccc(C2CCN(C(C(=O)NCc3cccnc3)c3ccccc3)CC2)cc1)c1ccccc1-c1ccc(C(F)(F)F)cc1 (stereo not drawn)" quantity_name=IC50 endpoint_result="0.0518 µM"

Read off the recorded IC50 for O=C(Nc1ccc(N2CCC(C(C(=O)Nc3ccccc3)c3ccccc3)CC2)cc1)c1ccccc1-c1ccc(Cl)cc1 (stereo not drawn)
0.115 µM

* * *

test system: ApoB secretion, HepG2 cells; test: Quantification of the secretion of ApoB (HepG2 cells, immunoprecipitation, scintillation counting); type: cell-based; conditions: Homo sapiens, HepG2, 24 h, 24 hours of incubation
pIC50: −log10 of the molar value.
quantity-name: pIC50

molecule="CCc1ccc(-c2ccccc2C(=O)Nc2ccc(N3CCC(C(C(=O)OC)c4ccccc4)CC3)cc2)cc1 (stereo not drawn) [Co. No. 231]" quantity_name=pIC50 endpoint_result="> 7.52"
molecule="CCNC(=O)C(c1ccccc1)N1CCN(c2ccc(NC(=O)c3ccccc3-c3ccc(C(F)(F)F)cc3)cc2Cl)CC1 (stereo not drawn) [Co. No. 213]" quantity_name=pIC50 endpoint_result="> 7.52"

Read the next record carefully.
Read off the recorded pIC50 for O=C(Nc1ccc(N2CCC(C(C(=O)Nc3ccccc3)c3ccccc3)CC2)cc1)c1ccccc1-c1ccc(C(F)(F)F)cc1 (stereo not drawn) [Co. No. 36]
≥ 7.52

* * *

system: ApoB secretion, HepG2 cells; assay: Quantification of the secretion of ApoB (HepG2 cells, immunoprecipitation, scintillation counting); type: cell-based; settings: Homo sapiens, HepG2, 24 h, 24 hours of incubation
quantity-name: IC50

Recorded IC50, per entry:
compound="COC(=O)C(c1ccccc1)N1CCN(c2ccc(NC(=O)c3ccccc3-c3ccc(C(F)(F)F)cc3)c(F)c2)CC1 (stereo not drawn)" endpoint_result="< 30 nM"
compound="CCCNC(=O)C(c1ccccc1)C1CCN(c2ccc(NC(=O)c3ccccc3-c3cccc(N)c3)cc2)CC1 (stereo not drawn)" endpoint_result="> 3000 nM"
compound="CCCNC(=O)C(c1ccccc1)C1CCN(c2ccc(NC(=O)c3ccccc3-c3ccccc3Cl)cc2)CC1 (stereo not drawn)" endpoint_result="≥ 3000 nM"
compound="CCNC(=O)C(c1ccccc1)N1CCN(c2ccc(NC(=O)c3ccc(Cl)cc3-c3ccc(C(F)(F)F)cc3)cc2)CC1 (stereo not drawn)" endpoint_result="< 30 nM"
compound="O=C(Nc1ccc(N2CCN(C(C(=O)NCc3cccnc3)c3ccccc3)CC2)cc1)c1ccccc1-c1ccc(C(F)(F)F)cc1 (stereo not drawn)" endpoint_result="≤ 30 nM"
compound="CC(C)NC(=O)C(c1ccccc1)N1CCN(c2ccc(NC(=O)c3ccccc3-c3ccc(C(F)(F)F)cc3)cc2)CC1 (stereo not drawn)" endpoint_result="≤ 30 nM"
compound="CCNC(=O)C(c1ccccc1)N1CCN(c2ccc(NC(=O)c3ccccc3-c3ccc(C(F)(F)F)cc3)c(C)c2)CC1 (stereo not drawn)" endpoint_result="< 30 nM"
compound="O=C(Nc1ccc(N2CCC(C(C(=O)Nc3ccccc3)c3ccccc3)CC2)cc1)c1ccccc1Cc1ccccc1 (stereo not drawn)" endpoint_result="≥ 3000 nM"

Read off the recorded IC50 for O=C(Nc1ccc(N2CCC(C(C(=O)Oc3ccccc3)c3ccccc3)CC2)cc1)c1ccccc1-c1ccc(C(F)(F)F)cc1 (stereo not drawn)
< 30 nM

* * *

system: ApoB secretion, HepG2 cells; experiment: Quantification of the secretion of ApoB (HepG2 cells, immunoprecipitation, scintillation counting); type: cell-based; settings: Homo sapiens, HepG2, 24 h, 24 hours of incubation
quantity-name: IC50 (nM)
One number for each entry, in nM.

molecule="CCOC(=O)C(c1ccccc1)N1CCC(c2ccc(NC(=O)c3ccccc3-c3ccc(C(F)(F)F)cc3)cc2)CC1 (stereo not drawn) [Co. No. 222]" endpoint_result=19.2
molecule="COC(=O)C(c1ccccc1)N1CCN(c2ccc(N(C)C(=O)c3ccccc3-c3ccc(C(F)(F)F)cc3)cc2)CC1 (stereo not drawn) [Co. No. 183]" endpoint_result=21.6
molecule="CCNC(=O)C(c1ccccc1)N1CCN(c2ccc(NC(=O)c3cc(Cl)ccc3-c3ccc(C(F)(F)F)cc3)cc2)CC1 (stereo not drawn) [Co. No. 200]" endpoint_result=80.2

For each of the molecules below, note its IC50.
1. CCOC(=O)C(c1ccc(Cl)cc1)N1CCN(c2ccc(NC(=O)c3ccccc3-c3ccc(C(F)(F)F)cc3)cc2)CC1 (stereo not drawn) [Co. No. 262]
2. O=C(Nc1ccc(N2CCC(C(C(=O)Nc3ccccc3)c3ccccc3)CC2)cc1)c1ccccc1Oc1ccccc1 (stereo not drawn) [Co. No. 34]
3. CCCNC(=O)C(c1ccccc1)C1CCN(c2ccc(NC(=O)c3ccccc3-c3cccc(C(F)(F)F)c3)cc2)CC1 (stereo not drawn) [Co. No. 48]

[558, 1550, 634]

* * *

System: ApoB secretion, HepG2 cells
Assay: Quantification of the secretion of ApoB (HepG2 cells, immunoprecipitation, scintillation counting)
Assay type: cell-based
Conditions: Homo sapiens, HepG2, 24 h, 24 hours of incubation
Procedure: C.1. Quantification of the Secretion of ApoB HepG2 cells were cultured in 24-well plates in Minimal Essential Medium Rega 3 containing 10% fetal calf serum. […] At 70% confluency, the medium was changed and the test compound or carrier (dimethylsulfoxide, 0.4% final concentration) was added. […] Radioactivity in the pellet was quantified by liquid scintillation counting. […]
Flag rule - IC50 less than 80 nM flags Satisfied; the remaining entries get Not satisfied.

Examples with answers:
compound="CCNC(=O)C(c1ccccc1)N1CCN(c2ccc(NC(=O)c3ccccc3-c3ccc(C(F)(F)F)cc3)c(Cl)c2)CC1 (stereo not shown)" category_label=Satisfied
compound="CCCNC(=O)C(c1ccccc1)N1CCN(c2ccc(NC(=O)c3ccccc3-c3ccc(C(F)(F)F)cc3)cc2)CC1 (stereo not shown)" category_label=Satisfied
compound="O=C(Nc1ccc(C2CCN(C(C(=O)OCc3ccccc3)c3ccccc3)CC2)cc1)c1ccccc1-c1ccccc1 (stereo not shown)" category_label="Not satisfied"
compound="CCNC(=O)C(c1ccccc1)C1CCN(c2ccc(NC(=O)c3ccccc3-c3cc(Cl)cc(Cl)c3)cc2)CC1 (stereo not shown)" category_label="Not satisfied"
compound="CCNC(=O)C(c1ccc(F)cc1)C1CCN(c2ccc(NC(=O)c3ccccc3-c3ccc(C(C)(C)C)cc3)cc2)CC1 (stereo not shown)" category_label=Satisfied

We now examine a further compound.
Take the compound COC(=O)C(c1ccccc1)N1CCN(c2ccc(NC(=O)c3cc(OC)ccc3-c3ccc(C(F)(F)F)cc3)cc2)CC1 (stereo not shown) and say whether its IC50 is less than 80 nM.
Not satisfied
